target: Yap1:Oct4 interaction (Homo sapiens, UniProt P46937); assay: Yap1:Oct4 interaction (in vitro binding assay); settings: FIG. 1
Sequence (P46937 whole entry): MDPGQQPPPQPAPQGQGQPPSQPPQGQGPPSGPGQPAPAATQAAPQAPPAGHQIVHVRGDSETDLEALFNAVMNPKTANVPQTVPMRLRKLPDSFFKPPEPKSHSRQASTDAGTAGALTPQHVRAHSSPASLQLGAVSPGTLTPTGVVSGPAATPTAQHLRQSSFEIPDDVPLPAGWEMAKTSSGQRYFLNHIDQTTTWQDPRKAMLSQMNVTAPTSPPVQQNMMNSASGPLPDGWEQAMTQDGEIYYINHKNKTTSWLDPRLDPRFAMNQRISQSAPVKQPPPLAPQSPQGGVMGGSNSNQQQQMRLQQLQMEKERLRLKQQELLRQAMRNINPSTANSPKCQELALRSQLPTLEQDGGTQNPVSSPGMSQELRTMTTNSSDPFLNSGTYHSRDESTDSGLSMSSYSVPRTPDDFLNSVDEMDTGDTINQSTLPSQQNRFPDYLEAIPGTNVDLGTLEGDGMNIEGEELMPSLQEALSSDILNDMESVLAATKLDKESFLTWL
pIC50: −log10 of the molar value.
assay_endpoint: pIC50

Example molecules with recorded pIC50:
{"compound": "CCOc1ccc(CCCN2CCC(CC(=O)Nc3ccc(OCc4ccccc4)cc3)CC2)cc1", "pIC50": 6.35}
{"compound": "COC(=O)[C@H](Cc1cccc(OC)c1)NC(=O)CC1CCN(CCCc2ccc(Cl)c(Cl)c2)CC1", "pIC50": 5.84}
{"compound": "COC(=O)[C@H](Cc1ccc(OCc2ccccc2)cc1)NC(=O)CC1CCN(CCCc2cccc(F)c2)CC1", "pIC50": 6.12}
{"compound": "COC(=O)[C@H](Cn1cc(-c2ccccc2)cn1)NC(=O)CC1CCN(C(=O)CCc2cccc(F)c2)CC1", "pIC50": 6.06}

I: O=C(CC1CCN(CCCc2ccc(Cl)c(Cl)c2)CC1)Nc1ccc(OCc2ccccc2)cc1
II: COC(=O)[C@H](Cc1ccc(OCc2ccccc2)cc1)NC(=O)CC1CCN(CCCc2ccc(Cl)c(Cl)c2)CC1
Req: Lab notebook, comparison: I versus II , higher pIC50 goes to which? In your reply, give the label of the chosen option.
Resp: I
(I: 6.25, II: 5.73)
